These measurements were taken from PubChem BioAssay (NCI).

Test system: UO-31 renal
Experiment: NCI-60 one-dose screen, 48 h
Conditions: 10 µM unless noted
About 83,000 compounds went through this panel and 20% of them were active in at least one assay; those are over-represented in the sample as a whole. Active and inactive are the calls of the source. Rule for the calls: active = growth percent below 10; inactive = the rest.
Outcome codes: active, inactive

{"COMPOUND": "COC(=O)c1ccc(NC(N)=NCCC(C)(C)c2ccc(C(F)(F)F)cc2)nc1", "DISCRETE_LABEL": "inactive"}
{"COMPOUND": "COc1cc(NC(C)CCCN)c2ncccc2c1Oc1ccc(Cl)cc1 (stereo not drawn)", "DISCRETE_LABEL": "inactive"}
{"COMPOUND": "O=Cc1ccc2nc(C(Cl)(Cl)Cl)ccc2c1", "DISCRETE_LABEL": "inactive"}
{"COMPOUND": "Clc1ccc(Nc2ncnc3c2sc2ncccc23)c(Cl)c1", "DISCRETE_LABEL": "active"}
{"COMPOUND": "C#CC[C@@H]1C[C@]2(C)[C@H]3CC[C@@H]4[C@H]5C(C(=C)C)CC[C@]5(C(=O)NCCN(CCN)CCN)CC[C@@]4(C)[C@]3(C)CC[C@H]2C(C)(C)[C@H]1OC(C)=O (stereo partly drawn)", "DISCRETE_LABEL": "inactive"}
{"COMPOUND": "O=[N+]([O-])c1cc(F)c2cccnc2c1O", "DISCRETE_LABEL": "inactive"}
{"COMPOUND": "C#CCNC(=S)N/N=C(\\C)c1ccccn1", "DISCRETE_LABEL": "active"}
{"COMPOUND": "CC(=O)c1cc(C(=O)c2ccc3c(c2)Sc2ccccc2N3)c2c(C)cccn12", "DISCRETE_LABEL": "inactive"}
{"COMPOUND": "Fc1cc(-c2nnc3sc(-c4ccc(Cl)cc4)nn23)c(Cl)cc1Cl", "DISCRETE_LABEL": "inactive"}
{"COMPOUND": "c1ccc(-c2[nH]c3ccccc3c2-c2ccccc2)cc1", "DISCRETE_LABEL": "inactive"}
{"COMPOUND": "Clc1ncnc2scc(C3COc4ccccc4O3)c12 (stereo not drawn)", "DISCRETE_LABEL": "inactive"}
{"COMPOUND": "COc1c(B(O)O)cccc1-c1nc2ccc3[nH]ncc3c2c2c1CCCC2", "DISCRETE_LABEL": "active"}
{"COMPOUND": "OC(c1cc2c(Cl)cc(Cl)cc2c2cc(C(F)(F)F)ccc12)C1CCCCN1 (stereo not drawn)", "DISCRETE_LABEL": "active"}
{"COMPOUND": "O=C1/C(=C\\c2cccn2Cc2ccc(F)cc2)c2ccccc2N1c1c(Cl)cccc1Cl", "DISCRETE_LABEL": "inactive"}
{"COMPOUND": "N[C@@H](CO)C(=O)O", "DISCRETE_LABEL": "inactive"}
{"COMPOUND": "O=C(NNC(=S)Nc1ccccc1)c1ccc(Nc2ncnc3c2cnn3-c2cccc(Br)c2)cc1", "DISCRETE_LABEL": "inactive"}
{"COMPOUND": "O=C(Nc1ccc2[nH]c3ccccc3c2c1)c1ccccc1Cl", "DISCRETE_LABEL": "inactive"}
{"COMPOUND": "O=C(Nc1cnc(C(F)(F)F)cn1)c1cc(Cl)ccc1O", "DISCRETE_LABEL": "active"}
{"COMPOUND": "Cn1nc(C(F)(F)F)cc1-c1c[nH]c(OCc2ccc(Cl)cc2)c(-c2ccc(Cl)c(C(F)(F)F)c2)c1=O", "DISCRETE_LABEL": "active"}
{"COMPOUND": "COc1ccc(/C=c2\\c(=O)n(-c3ccccc3)c3nn4c(n23)=NNC42CCCCC2)cc1", "DISCRETE_LABEL": "inactive"}
{"COMPOUND": "Oc1[nH]c2ccccc2c1/C=c1/ccc2c(c1)N=C(c1ccc(C(F)(F)F)cc1)N=2", "DISCRETE_LABEL": "inactive"}
{"COMPOUND": "CCN(C)CCCOc1ccc(/C(=C(\\C)Cc2cccc(OC)c2)c2ccc(OC(C)=O)cc2)cc1", "DISCRETE_LABEL": "inactive"}
{"COMPOUND": "C[C@]12CCc3nc(Nc4ccc(O)cc4)sc3C1=CC[C@@H]1[C@@H]2CC[C@]2(C)/C(=N/NC(N)=S)CC[C@@H]12", "DISCRETE_LABEL": "active"}
{"COMPOUND": "F", "DISCRETE_LABEL": "inactive"}
{"COMPOUND": "CC1=NN(c2cccc(S(N)(=O)=O)c2)C(=O)C1", "DISCRETE_LABEL": "inactive"}
{"COMPOUND": "CSC(=S)N/N=C(\\C)c1ccccn1", "DISCRETE_LABEL": "active"}
{"COMPOUND": "CN1CCN(Cc2ccc(NC(=O)c3ccc(C#N)c(C#Cc4cnc(N)c5ncccc45)c3)cc2C(F)(F)F)CC1", "DISCRETE_LABEL": "active"}
{"COMPOUND": "COc1ccc(-c2nc(-c3ccccc3OCc3ccccc3OC)nc(C)c2C(C)=O)cc1", "DISCRETE_LABEL": "inactive"}
{"COMPOUND": "COc1ccc(C2=CC(c3ccc(OC)cc3Br)N3C=CSC3=N2)cc1 (stereo not drawn)", "DISCRETE_LABEL": "inactive"}
{"COMPOUND": "CCCCCCCCCCCC1=NC(C)(C)CN1C(C)(C)CO", "DISCRETE_LABEL": "inactive"}
{"COMPOUND": "CC(=O)OC1Oc2cc(C)c(C)cc2-c2oc(=O)c(-c3ccc(F)cc3)cc21 (stereo not drawn)", "DISCRETE_LABEL": "inactive"}
{"COMPOUND": "COCCCNCC(=O)Nc1c(C)cccc1C", "DISCRETE_LABEL": "inactive"}
{"COMPOUND": "COc1cc(CN2CCO[C@H](COc3cccc(F)c3)C2)ccc1Cl", "DISCRETE_LABEL": "inactive"}
{"COMPOUND": "O=c1c2sc3ncc(Cl)cc3c2nnn1-c1cccc(Cl)c1", "DISCRETE_LABEL": "inactive"}
{"COMPOUND": "CC(CN1CCN(C)CC1)CN1c2ccccc2Sc2ccc(C(F)(F)F)cc21 (stereo not drawn)", "DISCRETE_LABEL": "inactive"}
{"COMPOUND": "CCCCCCCCCC1=NC(C)(C)CN1C(C)(C)CO", "DISCRETE_LABEL": "inactive"}
{"COMPOUND": "CCCC(CCC)NCC(O)c1cc(-c2ccc(C(F)(F)F)cc2)nc(C(F)(F)F)c1 (stereo not drawn)", "DISCRETE_LABEL": "active"}
{"COMPOUND": "COc1ccc(/C=C2\\N=C(c3cccnc3)N(c3ccccc3)NC2=O)cc1", "DISCRETE_LABEL": "inactive"}
{"COMPOUND": "Cc1cc(C)c2c(n1)sc1c(Nc3ccc(O)cc3)ncnc12", "DISCRETE_LABEL": "active"}
{"COMPOUND": "CCN(CC)Cc1cc(Nc2ccnc3cc(Cl)ccc23)cc(-c2ccc(Cl)cc2)c1O", "DISCRETE_LABEL": "active"}
{"COMPOUND": "CCN(CC)CCCC(C)Nc1cnc(C(=O)Nc2ccc(Cl)c3cccnc23)cn1 (stereo not drawn)", "DISCRETE_LABEL": "inactive"}
{"COMPOUND": "CC(C)c1[nH]ncc1-c1nc2ccc3[nH]ncc3c2c2c1CCCC2", "DISCRETE_LABEL": "inactive"}
{"COMPOUND": "CN(C)c1ccc(C(c2ccccc2)c2ccc(N(C)C)cc2)cc1", "DISCRETE_LABEL": "inactive"}
